System under test: GlyRS (Homo sapiens, UniProt P41250)
Construct: made in house; host or cells: E. coli BL21(DE3)
Sequence (P41250 37-739): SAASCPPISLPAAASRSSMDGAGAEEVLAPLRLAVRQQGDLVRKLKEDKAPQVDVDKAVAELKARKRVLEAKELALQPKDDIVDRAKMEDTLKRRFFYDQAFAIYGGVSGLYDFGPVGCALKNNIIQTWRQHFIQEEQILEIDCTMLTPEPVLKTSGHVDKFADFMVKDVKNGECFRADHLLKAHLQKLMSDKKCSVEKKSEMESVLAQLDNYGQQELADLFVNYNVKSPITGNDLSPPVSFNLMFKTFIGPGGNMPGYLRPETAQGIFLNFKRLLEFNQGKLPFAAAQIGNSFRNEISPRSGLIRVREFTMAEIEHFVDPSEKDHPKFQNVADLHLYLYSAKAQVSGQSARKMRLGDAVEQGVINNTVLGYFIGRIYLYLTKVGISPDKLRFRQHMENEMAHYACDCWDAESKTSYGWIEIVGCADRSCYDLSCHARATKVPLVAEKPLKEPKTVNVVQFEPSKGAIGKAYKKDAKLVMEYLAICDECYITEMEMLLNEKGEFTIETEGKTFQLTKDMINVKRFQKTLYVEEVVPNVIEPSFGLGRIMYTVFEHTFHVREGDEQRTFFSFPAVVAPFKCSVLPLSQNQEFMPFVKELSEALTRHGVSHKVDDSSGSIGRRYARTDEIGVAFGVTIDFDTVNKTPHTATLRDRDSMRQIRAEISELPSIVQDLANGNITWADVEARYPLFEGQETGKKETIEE
Experimental details: Enzyme inhibition assay (ATP consumption assay)
Assay type: biochemical
Condition description: 1 μM GlyRS at 20 μM compounds; average of two independent experiments
Relative Enzyme Activity by entry:
Response body: numeric value in %, unit text excluded.

Here are 5 compounds together with their reported answers.
Compound: CC(=O)N[C@@H](C)C(=O)O
Unit annotation: %
Relative Enzyme Activity: 88.1

Compound: Cc1ccc(S(=O)(=O)NCl)cc1
Unit annotation: %
Relative Enzyme Activity: 86.9

Compound: Oc1cc2c3c(c1)c1cc4c(cc1c[n+]3CC2)OCO4
Unit annotation: %
Relative Enzyme Activity: 8.0

Compound: COC[C@H]1C[C@@H](c2nc(-c3ccc4c(c3)COc3cc5c(ccc6nc([C@@H]7CC[C@H](C)N7C(=O)[C@@H](NC(=O)OC)C(C)C)[nH]c65)cc3-4)c[nH]2)N(C(=O)[C@H](NC(=O)OC)c2ccccc2)C1 [Velpatasvir, reference compound]
Unit annotation: %
Relative Enzyme Activity: 78.5

Compound: Cc1c(OCC(F)(F)F)ccnc1C[S+]([O-])c1nc2ccccc2[nH]1 (stereo not drawn) [Lansoprazole, reference compound]
Unit annotation: %
Relative Enzyme Activity: 72.3

*Q* Provide only the value of recorded Relative Enzyme Activity for `CC(C)c1cc2c(c(O)c1O)[C@@]1(C(=O)O)CCCC(C)(C)[C@@H]1CC2`
*A* 75.4
